# STUDY SYSTEM: cyno ST2L (cyno)
# ASSAY SUMMARY: affinity table; method not stated
RECORDED METRIC: kon (M⁻¹ s⁻¹)
Give the quantity in M⁻¹ s⁻¹, number only.

INPUT: Returns the measured kon for the input binder. Input: STLM208 (antibody, V domains shown) VH: EVQLLESGGGLVQPGGSLRLSCAASGFTFSIYDMIWVRQAPGKGLEWVSSIRGEGGGTYYADSVKGRFTISRDNSKNTLYLQMNSLRAEDTAVYYCARDPWSTEGSFFVLDYWGQGTLVTVSS VL: EIVLTQSPATLSLSPGERATLSCRASQSVDDDLAWYQQKPGQAPRLLIYDASNRATGIPARFSGSGSGTDFTLTISSLEPEDFAVYYCQQYITAPLTFGQGTKVEIK
OUTPUT: 1.39e+07

INPUT: Input STLM211 (antibody, from another filing, V domains shown) VH: EVQLLESGGGLVQPGGSLRLSCAASGFTFSGYAMIWVRQAPGKGLEWVSYIEGEGGETYYADSVKGRFTISRDNSKNTLYLQMNSLRAEDTAVYYCARDPWSTEGSFFVLDYWGQGTLVTVSS VL: EIVLTQSPATLSLSPGERATLSCRASQSVDDDLAWYQQKPGQAPRLLIYDASNRATGIPARFSGSGSGTDFTLTISSLEPEDFAVYYCQQYNDAITFGQGTKVEIK
OUTPUT: 1e+08
